Source: PubChem BioAssay (NCI)

Test system: MDA-MB-231 breast
Assay: NCI-60 one-dose screen, 48 h
Conditions: 10 µM unless noted
Protocol: Cells are grown in 96 well plates and exposed to the test compound for 48 hours. Compounds are tested at a single concentration, which is 10^-5 M for most compounds. The reported endpoint is percent growth (GI% or GIPRCNT), where numbers from 0 - 100% represent growth inhibition, and numbers from -100% - 0 represent cell death. For example, a value of 40 represents 60% growth inhibition. A value of 0 means no net growth occurred over the course of the experiment. […]
This is part of a sample that, as a whole, favours compounds with a hit. Of some 83,000 tested, about 20% had one in any assay. Calls of active or inactive are those of the source. The calls were made as follows: active = growth percent below 10; inactive = the rest.
Classes used: active, inactive

Compound | Answer label
CCN1CCN(Cc2ccc(NC(=O)Nc3nc(-c4cc(OC)c(OC)c(OC)c4)cs3)cc2C(F)(F)F)CC1 | active
CC(C)(C)C(=O)OCOP(=O)(OCOC(=O)C(C)(C)C)C1CCCN(OC(=O)c2ccccc2)C1=O (stereo unspecified) | inactive
C=CC(=O)Nc1cc2c(Nc3ccc(F)c(Cl)c3)ncnc2cc1OCCCN1CCOCC1 | active
O=C(COc1ccc(/C=C2\Cc3ccc(Cl)cc3C2=O)cc1)Nc1nccs1 | inactive
Clc1nc(Cl)c2ncn(CC#CCn3cnc4c(Cl)nc(Cl)nc43)c2n1 | active
CN1CCN(c2ccc(C(=O)Nc3n[nH]c4ccc(Cc5cc(F)cc(F)c5)cc34)c(NC3CCOCC3)c2)CC1 | active
CCc1nc2cc(/C=C/C(=O)NO)c(F)cc2c(=O)n1CCc1ccccc1 | inactive
O=c1[nH]ccc2c(S(=O)(=O)N3CCCNCC3)cccc12 | inactive
O=C(Cn1ccc2ccccc21)Nc1ccc(-c2nc3ccccc3s2)cc1 | inactive
CC1(COc2ccc3c(c2)ncn3-c2ccc3cccc(N4CCC(N)CC4)c3n2)COC1 | active
CC1(C)NC(=O)c2[nH]c3c(Cl)c(Cl)ccc3c2C1C#N (stereo unspecified) | inactive
ClCc1ccc(-c2ccc(Cn3cnc4c(Cl)nc(Cl)nc43)cc2)cc1 | active
C[N+](C)(CCOC(c1ccccc1)c1ccccc1)CC(=O)OCc1ccccc1 | inactive
O=CC(OC(=O)c1ccccc1)C(OC(=O)c1ccccc1)C(COC(c1ccccc1)(c1ccccc1)c1ccccc1)OC(=O)c1ccccc1 (stereo unspecified) | inactive
Cc1cccc(NC(=O)[C@@H]2c3ccccc3C(=O)N(c3ccc(Cl)cc3)[C@H]2c2ccc(Cl)cc2)n1 | inactive
Cc1ccc(NC(=O)NC(=O)CSc2nc3ccccc3nc2C)cc1 | inactive
CC#CC(=O)N1CCC[C@H]1c1nc(-c2ccc(C(=O)Nc3ccccn3)cc2)c2c(N)nccn12 | inactive
Cc1ccccc1N1C(c2ccccc2)=NNC12C=CC(=O)C=C2Cl (stereo unspecified) | inactive
C[C@@H]1COCCN1c1cc(C2([S@](C)(=N)=O)CC2)nc(-c2ccnc3[nH]ccc23)n1 | inactive
COc1ccc(C(=O)N2c3ccccc3Sc3ccccc32)c(F)c1 | inactive
CC(=O)NCC(=O)N1[C@@H]2CC[C@H]1c1ccc(Nc3ncc(C(F)(F)F)c(NC4CCC4)n3)cc12 | inactive
COc1cc(-c2nc(C(=O)NCC(=O)O)nn2-c2ccc(Cl)cc2)cc(OC)c1OC | inactive
COc1cc2nc(Nc3cccc(Cl)c3)nc(N)c2cc1OC | inactive
CCN(CCO)CCCOc1ccc2c(Nc3cc(CC(=O)Nc4cccc(F)c4)[nH]n3)ncnc2c1 | inactive
CN[C@@H]1C[C@H]2O[C@@](C)([C@@H]1OC)n1c3ccccc3c3c4c(c5c6ccccc6n2c5c31)C(=O)N[C@H]4O | active
O=S1(=O)OC(c2ccc(O)c(Cl)c2)(c2ccc(O)c(Cl)c2)c2ccccc21 | inactive
Cc1sc2c(c1C)c(=O)nc1c(-c3nc4ccccc4s3)n[nH]n12 | inactive
C#Cc1cccc(Nc2ncnc3cc4c(cc23)OCCOCCOCCO4)c1 | inactive
CCN(CC)CCNC(=O)c1c(C)[nH]c(/C=C2\C(=O)Nc3ccc(F)cc32)c1C | active
COc1c(C(NC(=O)c2ccccc2)c2sccc2C)cc(Cl)c2cccnc12 (stereo unspecified) | inactive
COc1cc(F)c(F)c(Nc2ccc(I)cc2F)c1NS(=O)(=O)C1(C[C@H](O)CO)CC1 | inactive
COc1cc2c(cc1OCCCCN1CCN(CC(=O)Nc3ccc(Cl)cc3C(=O)c3ccccc3Cl)CC1)N=CC1CCCN1C2=O (stereo unspecified) | active
CC(N)C(Cc1ccc(Cl)cc1)c1ccc(Cl)cc1 (stereo unspecified) | inactive
CCn1cc(-c2ccnc3[nH]c(-c4cccc(CN(C)C)c4)cc23)c(-c2ccc(NC(=O)N(C)C)cc2)n1 | inactive
CC(C)=CCc1cc2c(cc1O)C1=C(C(=O)C3=C(NCCS3(=O)=O)C1=O)C(C=C(C)C)O2 (stereo unspecified) | inactive
CO[C@H]1C[C@@H]2CC[C@@H](C)[C@@](O)(O2)C(=O)C(=O)N2CCCC[C@H]2C(=O)O[C@H]([C@H](C)C[C@@H]2CC[C@@H](OCCO)[C@H](OC)C2)CC(=O)[C@H](C)/C=C(\C)[C@@H](O)[C@H](OC)C(=O)[C@H](C)C[C@H](C)\C=C/C=C/C=C/1C | inactive
